Measured pIC50, listed per entry for reference.
- tested_system: DCN1 (DCUND1) protein PONY domain (Homo sapiens (Human), UniProt Q96GG9)
- Sequence (Q96GG9 60-248): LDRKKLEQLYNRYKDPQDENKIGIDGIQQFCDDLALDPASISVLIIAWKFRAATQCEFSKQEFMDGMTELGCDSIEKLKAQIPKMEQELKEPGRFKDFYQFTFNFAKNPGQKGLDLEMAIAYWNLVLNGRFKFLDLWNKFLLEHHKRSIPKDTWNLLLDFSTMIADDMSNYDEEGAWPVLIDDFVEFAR
- procedure_details: TR-FRET assay, DCN1 binding with FAM-labeled probe
- condition_label: 24 hr after treatment with compound; read-out: TR FRET IC50 24 hr
pIC50: −log10 of the molar value.
reported_metric: pIC50

INSERT INTO measurements (compound, result) VALUES
  ('CCN1C(=O)[C@@H](NC(=O)c2cccc(C(F)(F)F)c2)C(c2ccc(F)cc2)c2c(C(=O)N(CC#N)C3COC3)nn(-c3ccccc3)c21 (mixture of isomers) [Compound I-285]', '≥ 6.70'),
  ('CCN1C(=O)[C@@H](NC(=O)c2cccc(C(F)(F)F)c2)[C@@H](c2ccc(F)cc2)c2c(C(=O)N3CCC[C@H]3C#N)nn(-c3cccc(OCCN4CCN(C5COC5)CC4)c3)c21 [Compound I-340]', '≥ 6.70'),
  ('CCN1C(=O)[C@@H](NC(=O)c2cccc(C(F)(F)F)c2)[C@@H](c2ccc(F)cc2)c2c(CNC(=O)C3=C(C(=O)OC)CCC3)nn(-c3ccccc3)c21 [Compound I-135]', '6.00 to 6.70'),
  ('CCN1C(=O)[C@@H](NC(=O)c2csc(C(F)(F)F)n2)[C@@H](C2CC2)c2c(C(=O)N3[C@H](C#N)C[C@H]4C[C@H]43)nn(C3CCOCC3)c21 [Compound I-392]', '≥ 6.70'),
  ('C=C(CN1CC(F)(F)C1)C(=O)NCc1nn(-c2ccccc2)c2c1[C@H](c1ccc(F)cc1)[C@H](NC(=O)c1cccc(C(F)(F)F)c1)C(=O)N2CC (racemic) [Compound I-95]', '6.00 to 6.70');

----------
- tested_system: DCN1 (DCUND1) protein PONY domain (Homo sapiens (Human))
- procedure_details: TR-FRET assay, DCN1 binding with FAM-labeled probe
- condition_label: 24 hr after treatment with compound; read-out: TR FRET IC50 24 hr
pIC50: −log10 of the molar value.
reported_metric: pIC50

INSERT INTO assay_data (compound, reported_metric, result) VALUES
  ('CCN1C(=O)[C@@H](NC(=O)c2cccc(C(F)(F)F)c2)[C@@H](c2ccc(F)cc2)c2c([C@H](CCO)NC#N)nn(-c3ccccc3)c21 (mixture of isomers) [Compound I-576]', 'pIC50', '≥ 6.70'),
  ('CCN1C(=O)[C@@H](NC(=O)c2cccc(C(F)(F)F)c2)[C@@H](c2ccc(F)cc2)c2c(C(=O)N3CCNC[C@H]3C#N)nn(C3CCOCC3)c21 [Compound I-363]', 'pIC50', '≥ 6.70'),
  ('CCN1C(=O)[C@@H](NC(=O)C2CC(C)C2)[C@@H](C2CC2)c2c(C(=O)N3[C@H](C#N)C[C@H]4C[C@H]43)nn(C3CCOCC3)c21 (stereo partly drawn) [Compound I-655]', 'pIC50', '5.52 to 6.00'),
  ('C=C(CN1CCC(F)(F)C1)C(=O)NCc1nn(-c2ccccc2)c2c1[C@H](c1ccc(F)cc1)[C@H](NC(=O)c1cccc(C(F)(F)F)c1)C(=O)N2CC (racemic) [Compound I-72]', 'pIC50', '6.00 to 6.70'),
  ('CCN1C(=O)[C@@H](NC(=O)c2ccc3snnc3c2)[C@@H](C2CC2)c2c(C(=O)N3[C@H](C#N)C[C@H]4C[C@H]43)nn(C3CCOCC3)c21 [Compound I-706]', 'pIC50', '6.00 to 6.70'),
  ('CCN1C(=O)[C@@H](NC(=O)c2ccc(N3CCN(C)CC3)cn2)[C@@H](C2CC2)c2c(C(=O)N3[C@H](C#N)C[C@H]4C[C@H]43)nn(C3CCOCC3)c21 [Compound I-588]', 'pIC50', '5.52 to 6.00'),
  ('CCN1C(=O)[C@@H](NC(=O)c2cccc(C(F)(F)F)c2)[C@@H](c2ccc(F)cc2)c2c(C(=O)NC(C)(C)C#N)nn(-c3ccccc3)c21 (racemic) [Compound I-31]', 'pIC50', '5.52 to 6.00'),
  ('CCN1C(=O)[C@@H](NC(=O)c2cccc(C(F)(F)F)c2)[C@@H](c2ccc(F)cc2)c2c(CN(C)C/C=C/C(=O)OC)nn(-c3ccccc3)c21 (racemic) [Compound I-250]', 'pIC50', '≥ 6.70'),
  ('COC(=O)/C=C/CN(C)Cc1nn(-c2ccccc2)c2c1[C@H](c1ccc(F)cc1)[C@H](NC(=O)c1cccc(C(F)(F)F)c1)C(=O)N2CC(C)C [I-266]', 'pIC50', '6.00 to 6.70'),
  ('CCN1C(=O)[C@@H](NC(=O)c2ccc3c(c2)OCCO3)[C@@H](C2CC2)c2c(C(=O)N3[C@H](C#N)C[C@H]4C[C@H]43)nn(C3CCOCC3)c21 [Compound I-695]', 'pIC50', '5.52 to 6.00'),
  ('CCN1C(=O)[C@@H](NC(=O)c2cccc(C(F)(F)F)c2)[C@@H](c2ccc(F)cc2)c2c(C/C=C/C(=O)O)nn(-c3ccccc3)c21 (racemic) [Compound I-83]', 'pIC50', '5.52 to 6.00'),
  ('CCN1C(=O)[C@@H](NC(=O)c2cccc(C(F)(F)F)c2)[C@@H](c2ccc(F)cc2)c2c(C(=O)N(C)CC#N)nn(-c3ccccc3)c21 (racemic) [Compound I-282]', 'pIC50', '≥ 6.70'),
  ('CCN1C(=O)[C@@H](NC(=O)c2cccc(OC(F)(F)F)c2)[C@@H](C2CC2)c2c(C(=O)N3[C@H](C#N)C[C@H]4C[C@H]43)nn(C3CCOCC3)c21 [Compound I-396]', 'pIC50', '≥ 6.70'),
  ('CCN1C(=O)[C@@H](NC(=O)c2cccc(C(F)(F)F)c2)[C@@H](c2ccc(F)cc2)c2c(CN(C#N)CCO)nn(-c3ccccc3)c21 (racemic) [Compound I-244]', 'pIC50', '6.00 to 6.70'),
  ('CCN1C(=O)[C@@H](NC(=O)c2cccc(C(F)(F)F)c2)[C@@H](c2ccc(F)cc2)c2c(C(=O)N3C[C@H](OC)C[C@H]3C#N)nn(C3CCOCC3)c21 [Compound I-358]', 'pIC50', '≥ 6.70'),
  ('CCN1C(=O)[C@@H](NC(=O)c2cccc(C(F)(F)F)c2)[C@@H](c2ccc(F)cc2)c2c(COCC#N)nn(-c3ccccc3)c21 [Compound I-685]', 'pIC50', '≥ 6.70'),
  ('CCN1C(=O)[C@@H](NC(=O)c2cccc(C(F)(F)F)c2)[C@@H](C2CC2)c2c(C(=O)N3CCS(=O)(=O)C[C@@H]3C#N)nn(-c3ccccc3)c21 [Compound I-438]', 'pIC50', '≥ 6.70'),
  ('CCN1C(=O)[C@@H](NC(=O)C2CCC(F)(F)CC2)[C@@H](C2CC2)c2c(C(=O)N3[C@H](C#N)C[C@H]4C[C@H]43)nn(C3CCOCC3)c21 [Compound I-652]', 'pIC50', '5.52 to 6.00'),
  ('CCN1C(=O)[C@@H](NC(=O)c2cccc(C(F)(F)F)c2)[C@@H](c2ccc(F)cc2)c2c(C(=O)N3[C@H](C#N)C[C@H]4C[C@H]43)nn(-c3ccccc3)c21 [Compound I-277]', 'pIC50', '≥ 6.70'),
  ('CCN1C(=O)[C@@H](NC(=O)c2cccc(C#N)c2)[C@@H](C2CC2)c2c(C(=O)N3[C@H](C#N)C[C@H]4C[C@H]43)nn(C3CCOCC3)c21 [Compound I-698]', 'pIC50', '6.00 to 6.70'),
  ('CCN1C(=O)[C@@H](NC(=O)c2cccc(C(F)(F)F)c2)[C@@H](c2ccc(F)cc2)c2c(CN(C)C#N)nn(-c3ccccc3)c21 [Compound I-129]', 'pIC50', '≥ 6.70');

----------
- tested_system: DCN2 (DCUND2) protein PONY domain (Homo sapiens (Human), UniProt Q6PH85)
- Sequence (Q6PH85 60-248): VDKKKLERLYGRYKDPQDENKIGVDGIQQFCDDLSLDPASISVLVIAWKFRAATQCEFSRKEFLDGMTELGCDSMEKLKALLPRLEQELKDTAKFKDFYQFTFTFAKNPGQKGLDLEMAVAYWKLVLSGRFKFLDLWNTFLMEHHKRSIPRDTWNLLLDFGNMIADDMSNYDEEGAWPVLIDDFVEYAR
- procedure_details: Measurement of Kinact/KI in the DCN2 TR-FRET Assay
- Format: binding
- condition_label: time-dependent IC50 over 24 hrs, read-out: Kinact (converted)
reported_metric: kinact (s⁻¹)

INSERT INTO measurements (structure, measured_number) VALUES
  ('CCN1C(=O)[C@@H](NC(=O)c2cccc(C(F)(F)F)c2)[C@@H](C2CC2)c2c(C(=O)N3[C@H](C#N)C[C@H]4C[C@H]43)nn(C3CCOCC3)c21', 0.00783),
  ('CCc1cccc(C(=O)N[C@@H]2C(=O)N(CC)c3c(c(C(=O)N4[C@H](C#N)C[C@H]5C[C@H]54)nn3C3CCOCC3)[C@@H]2C2CC2)c1', 0.00566),
  ('CCN1C(=O)[C@@H](NC(=O)c2cccc(C(F)(F)F)c2)[C@@H](C2CC2)c2c(C(=O)N3C[C@H](OC)C[C@H]3C#N)nn(C3CCOCC3)c21', 0.00354),
  ('CCN1C(=O)[C@@H](NC(=O)c2cccc(C(F)(F)F)c2)[C@@H](C2CC2)c2c(C(=O)N3CCNC[C@H]3C#N)nn(-c3ccccc3)c21', 0.00465),
  ('CCN1C(=O)[C@@H](NC(=O)c2cccc(C(F)(F)F)c2)[C@@H](c2ccc(F)cc2)c2c(C(=O)N(C)[C@H](C#N)CCN(C)C)nn(C3CCOCC3)c21', '5.17e-05');

All values here come from patent US20250163057A1.
